settings: in DMAc, 298.15 K
Metric: solubility (mole fraction)

solubility (mole fraction) for Nc1nc2ccc(OC(F)(F)F)cc2s1 is 0.129

----------
conditions: in isopropyl acetate, 283.15 K
Metric: solubility (mole fraction)
One number for each entry.

solubility (mole fraction) for Nc1nc2ccc(OC(F)(F)F)cc2s1 is 0.341

----------
settings: in acetone, 313.15 K
Metric: solubility (mole fraction)

solubility (mole fraction) for Nc1nc2ccc(OC(F)(F)F)cc2s1 is 0.449

----------
conditions: in DMAc, 278.15 K
Metric: solubility (mole fraction)
Give bare numbers.

solubility (mole fraction) for Nc1nc2ccc(OC(F)(F)F)cc2s1 is 0.0878
